assay-procedure: Cytotoxicity, J774
Assay type: cell-based
assay-setup: mouse, J774 cells
observation-type: pIC50
# log scale: pIC50 equals minus log10 of the concentration in mol/L

Given the entry CC1=C2Cc3cc(ccc3O)C(=O)O[C@H](C(C)(C)Br)CC[C@](C)(O)[C@H](Br)CC[C@]2(C)[C@@H](Br)CC1 , report its measured pIC50.
4.72

###

assay-procedure: Cytotoxicity, HepG2
Type: cell-based
assay-setup: human, HepG2 cells
observation-type: pIC50
Please express pIC50 as -log10 of the molar concentration.

Request the reported pIC50 associated with CC1=C2Cc3cc(ccc3O)C(=O)O[C@H](C(C)(C)Br)CC[C@](C)(O)[C@H](Br)CC[C@]2(C)[C@@H](Br)CC1
4.67

###

Tested on: Plasmodium falciparum HB3 (chloroquine-sensitive parasite)
assay-procedure: Efficacy against Plasmodium falciparum HB3
Assay type: cell-based
observation-type: pIC50
In plain terms, pIC50 is the concentration in mol/L turned into minus its base-10 logarithm.

Would you kindly share the measured pIC50 for CC1=C2Cc3cc(ccc3O)C(=O)O[C@H](C(C)(C)Br)CC[C@](C)(O)[C@H](Br)CC[C@]2(C)[C@@H](Br)CC1 ?
6.25

Taken from patent US8481757B2.
